# viability at 96 h, 5 µM listing for each entry below
- test: Viability of FS non malignant fibroblastic cells, XTT test
- Type: cell-based
- study-conditions: FS cells (non-malignant fibroblastic cell line), Control DMSO = 100%, first FS column, read-out: percentage of viable cells, FS
metric-name: viability at 96 h, 5 µM (%)

>>> df
                                    compound  measured_number
 0  Cc1c(-c2ccc(N3CCCCCC3)cc2)nc2sc(N3CCC(C(=O)N4CCN(C)CC4)CC3)nn12               92
 1  CC(C)c1ccc(-c2cn3nc(N4CCC(C(=O)N5CCN(CC(=O)N6CCN(C)CC6)CC5)CC4)sc3n2)cc1               85
 2  CN1CCN(C(=O)C2CCN(c3nn4cc(-c5ccc(-n6cccn6)cc5)nc4s3)CC2)CC1               96
 3  Cc1ccc(C)n1CCN1CCN(C(=O)C2CCN(c3nn4cc(-c5ccc(C(C)C)cc5)nc4s3)CC2)CC1              106
 4  Cc1c(-c2ccc(N3CCCC3)cc2)nc2sc(N3CCC(C(=O)N4CCN(C)CC4)CC3)nn12              109
 5  Cc1c(-c2ccc(N3CCCC(C)C3)cc2)nc2sc(N3CCC(C(=O)N4CCN(C)CC4)CC3)nn12 (stereo not drawn)               82
 6  CN(C)CCN(Cc1ccco1)C(=O)C1CCN(c2nn3cc(-c4ccc(Cl)cc4)nc3s2)CC1               61
 7  CC(C)c1ccc(-c2cn3nc(N4CCC(C(=O)N5CCCN(C)CC5)CC4)sc3n2)cc1               60
 8  Cc1c(-c2ccc(N3CCN(C)CC3)cc2)nc2sc(N3CCC(C(=O)N4CCN(C)CC4)CC3)nn12              101
 9  CC(C)c1ccc(-c2cn3nc(N4CCC(C(=O)N5CCN(CC(=O)NCCN(C)C)CC5)CC4)sc3n2)cc1               78
10  CN1CCN(C(=O)C2CCN(c3nn4cc(-c5ccc(N6CCN(C)CC6)cc5)nc4s3)CC2)CC1              101
11  CC(C)c1ccc(-c2cn3nc(N4CCC(C(=O)N(C)C5CCN(C)CC5)CC4)sc3n2)cc1               65
12  CC(C)c1ccc(-c2cn3nc(N4CCC(C(=O)N5CCN(CCN(C)C)CC5)CC4)sc3n2)cc1               79
13  CN1CCN(C(=O)C2CCN(c3nn4cc(-c5ccc(N6CCOCC6)cc5)nc4s3)CC2)CC1              103
14  CN1CCN(C(=O)C2CCN(c3nn4cc(-c5ccc(N(C)CCO)cc5)nc4s3)CC2)CC1              120
15  CN1CCC(N2CCN(C(=O)C3CCN(c4nn5cc(-c6ccc(Cl)cc6)nc5s4)CC3)CC2)CC1                3
16  CC(C)c1ccc(-c2cn3nc(N4CCC(C(=O)N(C)CCc5ccncc5)CC4)sc3n2)cc1              111
17  CC(C)c1ccc(-c2cn3nc(N4CCC(C(=O)N(C)CCc5ccccn5)CC4)sc3n2)cc1               91

Source listed as patent US20180186815A1.
